System: SR
Test: NCI tumour cell line growth inhibition, 48 h
Active and inactive are the calls of the source. Cut-off read from the data, not from the text of the source: active = GI50 up to about 1.1 µM and inactive = higher.
Please answer using one outcome listed in true (active), false (inactive)

query: What did the test return for `COc1cc2ccc1OCc1cccc(n1)COc1ccc(cc1OC)/C=N\CCNCCNCC/N=C\2` ?
result: false

query: What did the test return for `CCOC(=O)c1nnc2c(C#N)c(-c3ccccc3)c(C)n2c1N` ?
result: false

query: What did the test return for `CCN(CC)Cc1ccc(Nc2c3ccccc3nc3ccccc23)cc1` ?
result: false

query: What did the test return for `Nc1ccc(C(=O)O)cc1.Nc1nc(N)c2nc[nH]c2n1` ?
result: false

query: What did the test return for `O=C(O)CCCCn1ccc(=O)[nH]c1=O` ?
result: false

query: What did the test return for COc1cc(C2S/C(=C/c3ccccc3)C(=O)N2c2ccccn2)cc(OC)c1OC (stereo not given) ?
result: false

query: What did the test return for `NC1c2ccccc2Nc2ccccc21` ?
result: false

query: What did the test return for `COc1ccc(Nc2nc3cc(C(F)(F)F)ccc3nc2-c2ccccc2)cc1OC` ?
result: false

The reported measurements were obtained from ChEMBL document CHEMBL1201862.
